- study.target: reuptake of dopamine (DA) in synaptosomes (Rattus norvegicus, UniProt P23977)
- Construct: in synaptosomes as described in WO 97/16451 (NeuroSearch A/S); from tissue
- Sequence (P23977 whole entry): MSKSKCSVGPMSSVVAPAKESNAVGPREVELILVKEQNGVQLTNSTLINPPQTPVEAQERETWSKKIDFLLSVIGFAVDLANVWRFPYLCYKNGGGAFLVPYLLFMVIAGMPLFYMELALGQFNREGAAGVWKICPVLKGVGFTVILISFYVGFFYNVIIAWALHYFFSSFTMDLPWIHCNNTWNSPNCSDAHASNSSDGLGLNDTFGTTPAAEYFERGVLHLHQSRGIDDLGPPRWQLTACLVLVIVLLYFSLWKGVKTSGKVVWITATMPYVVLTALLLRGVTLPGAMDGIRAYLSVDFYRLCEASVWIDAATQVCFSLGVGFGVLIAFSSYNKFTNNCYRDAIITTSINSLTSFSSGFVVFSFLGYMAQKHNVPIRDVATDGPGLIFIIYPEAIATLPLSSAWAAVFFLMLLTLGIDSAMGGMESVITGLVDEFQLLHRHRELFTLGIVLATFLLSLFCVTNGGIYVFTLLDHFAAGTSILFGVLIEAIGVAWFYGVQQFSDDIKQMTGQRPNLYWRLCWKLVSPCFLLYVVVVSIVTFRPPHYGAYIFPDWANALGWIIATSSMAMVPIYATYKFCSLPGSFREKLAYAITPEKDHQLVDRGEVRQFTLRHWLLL
- test.description: Inhibition of DA reuptake in synaptosomes
- Type: biochemical
- measurement.conditions: 3H-DA, synaptosomes; read-out: DA-uptake IC50
pIC50: −log10 of the molar value.
recorded.metric: pIC50

smiles.input: CCN(C(=O)CCC1CCNCC1)c1ccc(Cl)c(Cl)c1
study.target: reuptake of dopamine (DA) in synaptosomes (Rattus norvegicus, UniProt P23977)
pIC50: 7.96

smiles.input: CCN(C(=O)CCC1CCN(C)CC1)c1ccc(Br)c(Cl)c1
study.target: reuptake of dopamine (DA) in synaptosomes (Rattus norvegicus, UniProt P23977)
pIC50: 8.17

smiles.input: CCN(C(=O)CCC1CCN(C)CC1)c1ccc(Cl)c(Cl)c1
study.target: reuptake of dopamine (DA) in synaptosomes (Rattus norvegicus, UniProt P23977)
pIC50: 8.20

smiles.input: CCCN(C(=O)CCC1CCNCC1)c1ccc(Cl)c(Cl)c1
study.target: reuptake of dopamine (DA) in synaptosomes (Rattus norvegicus, UniProt P23977)
pIC50: 8.01
